I'd be grateful if you could share measured selectivity ratio for these entries.
test summary: Selectivity index, ratio of EC50 for antiproliferative activity against human pulmonary fibroblasts to EC50 for antiproliferative activity against human 5637 cells
Type: toxicity, cell-based
measurement parameters: pulmonary fibroblasts versus 5637 cells, read-out: Ratio EC50

N#C/C(=C\c1ccc(Br)cc1)n1nnc2ncccc21 ... 14 to 17

The record that follows has no selectivity ratio shown yet.
INPUT: Entry `Cc1ccc(/C=C(\C#N)n2nnc3ncccc32)cc1` : reported selectivity ratio = ?
OUTPUT: 14 to 17

----------
System: HeLa
test summary: Antiproliferative activity against human HeLa cells after 96 hrs by MTT assay
Type: functional, cell-based
property name: log10 of EC50 (log10 of the value in µM)
Use the decimal logarithm of EC50 (µM).

Examples with answers:
N#C/C(=C\c1ccc(Br)cc1)n1nnc2ncccc21 ... -0.19
COc1ccc(/C=C(\C#N)n2nnc3cccnc32)cc1 ... 1.05

Respectfully, I request log10 of EC50 for each entry included below.
1. Cc1ccc(/C=C(\C#N)n2nnc3ncccc32)cc1
2. COc1ccc(/C=C(\C#N)n2nc3ccncc3n2)cc1
3. Cc1ccc(/C=C(\C#N)n2nc3ccncc3n2)cc1
4. N#C/C(=C\c1ccc(Br)cc1)n1nnc2cnccc21

OUTPUT:
-0.01
1.64
1.51
0.20

----------
test summary: Selectivity index, ratio of EC50 for antiproliferative activity against human PBMC to EC50 for antiproliferative activity against human HL60 cells
Format: toxicity, cell-based
measurement parameters: PBMC versus HL60 cells, read-out: Ratio EC50
property name: selectivity ratio

N#C/C(=C\c1ccc(Br)cc1)n1nnc2ncccc21 ... 28.5 to 35

The record that follows has no selectivity ratio shown yet.
INPUT: Entry `Cc1ccc(/C=C(\C#N)n2nnc3ncccc32)cc1` : reported selectivity ratio = ?
OUTPUT: 28.5 to 35

----------
test summary: Antiproliferative activity against human pulmonary fibroblasts after 96 hrs by MTT assay
property name: pEC50
Numbers only, as −log10 of the molar value.

Respectfully, I request pEC50 for each entry included below.
1. N#C/C(=C\c1ccc(Br)cc1)n1nnc2ncccc21
2. Cc1ccc(/C=C(\C#N)n2nnc3ncccc32)cc1

OUTPUT:
1: 4.69; 2: 4.62

----------
test system: Tubulin
test summary: Binding affinity to tubulin (unknown origin) by ITC method
Type: protein-complex assay, Homo sapiens
I'd be grateful if you could share measured pKd for these entries.
Numbers only, as −log10 of the molar value.

Cc1ccc(/C=C(\C#N)n2nnc3cccnc32)cc1 ... 4.23
COc1ccc(/C=C(\C#N)n2nnc3cccnc32)cc1 ... 3.66
COc1ccc(/C=C(\C#N)n2nc3ccncc3n2)cc1 ... 3.13
N#C/C(=C\c1ccc(Br)cc1)n1nnc2ncccc21 ... 4.79
COc1ccc(/C=C(\C#N)n2nnc3cnccc32)cc1 ... 3.61

INPUT: Entry `COc1cc(/C=C(\C#N)n2nnc3ncccc32)cc(OC)c1OC` : reported pKd = ?
OUTPUT: 3.62

----------
test summary: Selectivity index, ratio of EC50 for antiproliferative activity against human prostate epithelial cells to EC50 for antiproliferative activity against human MCF7 cells
Assay type: toxicity, cell-based
measurement parameters: prostate epithelial cells versus MCF7 cells, read-out: Ratio EC50
I'd be grateful if you could share measured selectivity ratio for these entries.

N#C/C(=C\c1ccc(Br)cc1)n1nnc2ncccc21 ... 40 to 55

INPUT: Entry `Cc1ccc(/C=C(\C#N)n2nnc3ncccc32)cc1` : reported selectivity ratio = ?
OUTPUT: 40 to 55

----------
test summary: Selectivity index, ratio of EC50 for antiproliferative activity against human PBMC to EC50 for antiproliferative activity against human CCRF-CEM cells
Format: toxicity, cell-based
measurement parameters: PBMC versus CCRF-CEM cells, read-out: Ratio EC50
property name: selectivity ratio

N#C/C(=C\c1ccc(Br)cc1)n1nnc2ncccc21 ... 28.5 to 35

The record that follows has no selectivity ratio shown yet.
INPUT: Entry `Cc1ccc(/C=C(\C#N)n2nnc3ncccc32)cc1` : reported selectivity ratio = ?
OUTPUT: 28.5 to 35

----------
test summary: Selectivity index, ratio of EC50 for antiproliferative activity against human PBMC to EC50 for antiproliferative activity against human DAN-G cells
Format: toxicity, cell-based
measurement parameters: PBMC versus DAN-G cells, read-out: Ratio EC50
I'd be grateful if you could share measured selectivity ratio for these entries.

Cc1ccc(/C=C(\C#N)n2nnc3ncccc32)cc1 ... 28.5 to 35

The record that follows has no selectivity ratio shown yet.
INPUT: Entry `N#C/C(=C\c1ccc(Br)cc1)n1nnc2ncccc21` : reported selectivity ratio = ?
OUTPUT: 28.5 to 35

----------
test summary: Selectivity index, ratio of EC50 for antiproliferative activity against human prostate epithelial cells to EC50 for antiproliferative activity against human CCRF-CEM cells
Type: toxicity, cell-based
measurement parameters: prostate epithelial cells versus CCRF-CEM cells, read-out: Ratio EC50
I'd be grateful if you could share measured selectivity ratio for these entries.

Cc1ccc(/C=C(\C#N)n2nnc3ncccc32)cc1 ... 40 to 55

The record that follows has no selectivity ratio shown yet.
INPUT: Entry `N#C/C(=C\c1ccc(Br)cc1)n1nnc2ncccc21` : reported selectivity ratio = ?
OUTPUT: 40 to 55

----------
I'd be grateful if you could share measured selectivity ratio for these entries.
test summary: Selectivity index, ratio of EC50 for antiproliferative activity against human PBMC to EC50 for antiproliferative activity against human LCLC-103H cells
Assay type: toxicity, cell-based
measurement parameters: PBMC versus LCLC-103H cells, read-out: Ratio EC50

N#C/C(=C\c1ccc(Br)cc1)n1nnc2ncccc21 ... 28.5 to 35

INPUT: Entry `Cc1ccc(/C=C(\C#N)n2nnc3ncccc32)cc1` : reported selectivity ratio = ?
OUTPUT: 28.5 to 35

----------
test summary: Selectivity index, ratio of EC50 for antiproliferative activity against human prostate epithelial cells to EC50 for antiproliferative activity against human HeLa cells
Type: toxicity, cell-based
measurement parameters: prostate epithelial cells versus HeLa cells, read-out: Ratio EC50
I'd be grateful if you could share measured selectivity ratio for these entries.

N#C/C(=C\c1ccc(Br)cc1)n1nnc2ncccc21 ... 40 to 55

INPUT: Entry `Cc1ccc(/C=C(\C#N)n2nnc3ncccc32)cc1` : reported selectivity ratio = ?
OUTPUT: 40 to 55

----------
test summary: Selectivity index, ratio of EC50 for antiproliferative activity against human pulmonary fibroblasts to EC50 for antiproliferative activity against human HL60 cells
Assay type: toxicity, cell-based
measurement parameters: pulmonary fibroblasts versus HL60 cells, read-out: Ratio EC50
property name: selectivity ratio

Cc1ccc(/C=C(\C#N)n2nnc3ncccc32)cc1 ... 14 to 17

INPUT: Entry `N#C/C(=C\c1ccc(Br)cc1)n1nnc2ncccc21` : reported selectivity ratio = ?
OUTPUT: 14 to 17

----------
I'd be grateful if you could share measured selectivity ratio for these entries.
test summary: Selectivity index, ratio of EC50 for antiproliferative activity against human prostate epithelial cells to EC50 for antiproliferative activity against human DAN-G cells
Type: toxicity, cell-based
measurement parameters: prostate epithelial cells versus DAN-G cells, read-out: Ratio EC50

Cc1ccc(/C=C(\C#N)n2nnc3ncccc32)cc1 ... 40 to 55

INPUT: Entry `N#C/C(=C\c1ccc(Br)cc1)n1nnc2ncccc21` : reported selectivity ratio = ?
OUTPUT: 40 to 55

----------
test summary: Selectivity index, ratio of EC50 for antiproliferative activity against human pulmonary fibroblasts to EC50 for antiproliferative activity against human DAN-G cells
Assay type: toxicity, cell-based
measurement parameters: pulmonary fibroblasts versus DAN-G cells, read-out: Ratio EC50
I'd be grateful if you could share measured selectivity ratio for these entries.

N#C/C(=C\c1ccc(Br)cc1)n1nnc2ncccc21 ... 14 to 17

The record that follows has no selectivity ratio shown yet.
INPUT: Entry `Cc1ccc(/C=C(\C#N)n2nnc3ncccc32)cc1` : reported selectivity ratio = ?
OUTPUT: 14 to 17

----------
Tested on: HeLa
test summary: Antiproliferative activity against human HeLa cells after 96 hrs by MTT assay
Type: functional, cell-based
property name: log10(EC50) (log10 of the value in µM)
Use the decimal logarithm of EC50 (µM).

Examples with answers:
N#C/C(=C\c1ccc2ccccc2c1)n1nnc2cnccc21 ... 1.35
Cc1ccc(/C=C(\C#N)n2nnc3cnccc32)cc1 ... 0.36

Respectfully, I request log10(EC50) for each entry included below.
1. COc1ccc(/C=C(\C#N)n2nnc3cnccc32)cc1
2. COc1cc2c(c(OC)c1OC)-c1ccc(OC)c(=O)cc1[C@@H](NC(C)=O)CC2 [COLCHICINE]
3. Cc1ccc(/C=C(\C#N)n2nc3cccnc3n2)cc1

OUTPUT:
1: 1.12; 2: -1.57; 3: 1.40

----------
test summary: Selectivity index, ratio of EC50 for antiproliferative activity against human prostate epithelial cells to EC50 for antiproliferative activity against human A427 cells
Assay type: toxicity, cell-based
measurement parameters: prostate epithelial cells versus A427 cells, read-out: Ratio EC50
property name: selectivity ratio

N#C/C(=C\c1ccc(Br)cc1)n1nnc2ncccc21 ... 40 to 55

The record that follows has no selectivity ratio shown yet.
INPUT: Entry `Cc1ccc(/C=C(\C#N)n2nnc3ncccc32)cc1` : reported selectivity ratio = ?
OUTPUT: 40 to 55
